- TARGET: human ether-à-go-go-related gene (hERG) potassium channel (human, UniProt Q12809);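 further: peak tail current of the secondary pulse compared with the same well before compound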
- Sequence (Q12809 whole entry, looked up): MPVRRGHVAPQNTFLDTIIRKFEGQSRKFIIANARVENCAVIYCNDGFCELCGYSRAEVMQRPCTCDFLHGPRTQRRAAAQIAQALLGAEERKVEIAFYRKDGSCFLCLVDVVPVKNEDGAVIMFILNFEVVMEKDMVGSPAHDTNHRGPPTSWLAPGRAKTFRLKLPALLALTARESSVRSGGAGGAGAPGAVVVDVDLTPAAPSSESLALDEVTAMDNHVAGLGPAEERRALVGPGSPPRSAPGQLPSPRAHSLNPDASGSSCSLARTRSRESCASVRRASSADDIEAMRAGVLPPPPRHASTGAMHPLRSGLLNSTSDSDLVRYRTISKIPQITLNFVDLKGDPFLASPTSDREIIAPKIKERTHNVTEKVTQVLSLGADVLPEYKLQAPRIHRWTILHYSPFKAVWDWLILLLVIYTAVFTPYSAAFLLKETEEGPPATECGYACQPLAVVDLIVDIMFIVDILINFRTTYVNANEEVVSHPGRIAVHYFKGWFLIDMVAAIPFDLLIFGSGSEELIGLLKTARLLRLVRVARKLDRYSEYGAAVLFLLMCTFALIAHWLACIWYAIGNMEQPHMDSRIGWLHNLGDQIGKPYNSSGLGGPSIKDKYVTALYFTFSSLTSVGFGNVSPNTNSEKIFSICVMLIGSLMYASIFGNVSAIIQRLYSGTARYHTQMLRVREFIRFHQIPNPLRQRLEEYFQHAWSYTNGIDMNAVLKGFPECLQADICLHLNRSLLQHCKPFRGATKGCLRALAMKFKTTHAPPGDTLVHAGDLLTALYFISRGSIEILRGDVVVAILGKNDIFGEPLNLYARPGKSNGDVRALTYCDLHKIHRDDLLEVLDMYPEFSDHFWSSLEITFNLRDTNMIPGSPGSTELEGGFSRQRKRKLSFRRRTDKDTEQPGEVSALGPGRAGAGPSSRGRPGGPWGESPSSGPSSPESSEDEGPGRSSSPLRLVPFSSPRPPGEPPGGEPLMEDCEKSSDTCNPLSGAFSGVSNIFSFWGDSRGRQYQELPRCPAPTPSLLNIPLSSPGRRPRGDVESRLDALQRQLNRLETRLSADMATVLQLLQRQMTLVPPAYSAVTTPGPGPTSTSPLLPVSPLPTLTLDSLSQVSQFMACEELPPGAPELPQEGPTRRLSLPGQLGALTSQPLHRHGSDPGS
- ASSAY TEXT: primary screen, population patch clamp on CHO cells stably expressing hERG; higher = less effect of the substance
About 14,000 (4.5%) of roughly 310,000 compounds showed an effect of 50% or more. Effects have a minus sign here. The sample as a whole holds a higher share of strong results than the screen did.
Kindly supply the reported hERG current change (%, negative = inhibition) at 10uM values for the records listed here.
Just the number please, in %, no unit attached.

Which value of hERG current change (%, negative = inhibition) at 10uM has been reported for CC(C)c1ccc(CN2CCC(C(=O)NCc3cccnc3)CC2)cc1.O=C(O)C(=O)O in the records?
-52.1

Reported hERG current change (%, negative = inhibition) at 10uM, molecule COc1ccc(-c2nnc(NC(=O)c3ccc([N+](=O)[O-])o3)o2)c(OC)c1 : ____
19.2

Entry under review: Cc1ccc(Nc2cc(C)nc(N3CCOCC3)n2)cc1 . Reported hERG current change (%, negative = inhibition) at 10uM?
6.18

Dear colleague, I am looking for the recorded hERG current change (%, negative = inhibition) at 10uM of the following molecule: Cc1onc(-c2c(Cl)cccc2Cl)c1NC(=O)NNc1ccccn1
-11.7

Sample O=C(CCCSc1nc2ccccc2c(=O)[nH]1)c1ccc(F)cc1 — what was its hERG current change (%, negative = inhibition) at 10uM?
3.3

What value of hERG current change (%, negative = inhibition) at 10uM has been reported for the following molecule? Cc1ccc(C(=O)Nc2ccccn2)cc1S(=O)(=O)N1CCOCC1
-5.72

Need hERG current change (%, negative = inhibition) at 10uM of CCOC(=O)C(NC(=O)c1cccnc1)(Nc1cccc(C)n1)C(F)(F)F (centres unmarked) , thanks.
1.24

Quick one: hERG current change (%, negative = inhibition) at 10uM for Cc1ccc(C(=O)Nc2ccc(Cl)cn2)cc1S(=O)(=O)N1CCOCC1 ?
-51.4

Value lookup for hERG current change (%, negative = inhibition) at 10uM; key = Cc1cccc(N2N=C(C(=O)Nc3ccc(Cl)c(S(=O)(=O)N4CCOCC4)c3)CCC2=O)c1
-52.4

Entry O=C(Nc1cccc(S(=O)(=O)N2CCOCC2)c1)C1=NN(c2ccccc2)C(=O)CC1 has what hERG current change (%, negative = inhibition) at 10uM?
-42.9

Tell me the measured hERG current change (%, negative = inhibition) at 10uM of Cc1oc(-c2ccccc2F)nc1CN1CCC(C(=O)NCc2cccnc2)CC1 , please.
-26.7

May I ask what hERG current change (%, negative = inhibition) at 10uM has been recorded for Cc1c[n+]([O-])n(-c2ccc(C(=O)O)cc2)n1 ?
0.473

# query: hERG current change (%, negative = inhibition) at 10uM of entry Cc1ccc(NC(=O)c2ccc(C)c(S(=O)(=O)N3CCOCC3)c2)nc1
-6.9

Which hERG current change (%, negative = inhibition) at 10uM is reported for this molecule? O=C(COC(=O)c1cccc(S(=O)(=O)N2CCOCC2)c1)Nc1ncc(Cl)cc1Cl
-13.4

Query: hERG current change (%, negative = inhibition) at 10uM; subject: Cc1cc(C)c(S(=O)(=O)N2CCCC(C(=O)NCc3cccnc3)C2)c(C)c1 (centres unmarked)
-27

I have this molecule here, CCS(=O)(=O)N1CCC(C(=O)NCc2cccnc2)CC1 , and I need its recorded hERG current change (%, negative = inhibition) at 10uM.
-11.7

Given the molecule O=C(COC(=O)c1cccc(S(=O)(=O)N2CCOCC2)c1)Nc1ccc(Cl)cn1 , what is its reported hERG current change (%, negative = inhibition) at 10uM?
-61.1

Quick one: hERG current change (%, negative = inhibition) at 10uM of Cc1nn(C)c(C)c1S(=O)(=O)N1CCCC(C(=O)N2CCN(c3ccccc3)CC2)C1 (centres unmarked) ?
-27.6

Name the recorded hERG current change (%, negative = inhibition) at 10uM for O=C(COC(=O)c1cc(S(=O)(=O)N2CCOCC2)ccc1F)Nc1ccc(Cl)cn1 .
-37.4

Which hERG current change (%, negative = inhibition) at 10uM reading was recorded for the molecule Cc1ccccc1-c1nc(CN2CCC(C(=O)NCc3cccnc3)CC2)c(C)o1 ?
-32.8
